Test system: MOLM-13
Parameters: species or system AML cell lines (8); Primary HTS, single concentration about 10 uM, Cell Titer Glo viability; log10 luminescence, per cent inhibition relative to cycloheximide control
Experimental parameters: 72 h, relative to cycloheximide control, log10 luminescence; inhibitor
Please note: Condition met applies when MOLM-13 %inh is 10% or greater, and Condition not met applies otherwise.

# count of solved cases: 5
{"Compound": "CCc1c(C)nc2sc3c(N)ncnc3c2c1C", "Qualitative label": "Condition met"}
{"Compound": "CC1=Nc2ccc(Cl)cc2S(=O)(=O)N1 [SJ000285438-7, DIAZOXIDE]", "Qualitative label": "Condition met"}
{"Compound": "CN(C)CCOc1ccc(-c2nc(-c3ccncc3)c(-c3ccc4c(c3)CC/C4=N\\O)[nH]2)cc1", "Qualitative label": "Condition met"}
{"Compound": "Cc1ccc2c(c1)c(C1=C(c3cn(C)c4ccccc34)C(=O)NC1=O)cn2C", "Qualitative label": "Condition met"}
{"Compound": "Cc1cc(O)cc(C)c1/C=C/c1cncc(C(=O)OC(C)(C)C)c1", "Qualitative label": "Condition not met"}

Query block: Decide: is the reported value of MOLM-13 %inh for `COc1cc2ncn(-c3cc(O[C@H](C)c4ccccc4Cl)c(C(N)=O)s3)c2cc1OC` equal to or greater than 10%?
Result block: Condition met

Query block: Does MOLM-13 %inh meet or surpass 10% for `CC(=O)[C@@H]1[C@@H](C)N(Cc2ccccc2)C(=O)N[C@H]1c1cccc(C(F)(F)F)c1` ?
Result block: Condition not met

Query block: Reported MOLM-13 %inh reaches at least 10% for C[N+]1(C)CCC(OC(=O)C(O)(c2ccccc2)C2CCCC2)C1 (centres unmarked) [SJ000287387-2, GLYCOPYRROLATE] ?
Result block: Condition not met

###

Test system: MOLM-13
Assay method text: cells
Parameters: species or system AML cell lines (8); Secondary HTS, 10-point dose-response in triplicate, Cell Titer Glo viability, four-parameter fit EC50
Experimental parameters: Homo sapiens, MOLM-13, 72 h, read-out: MOLM-13
Below, each entry is listed with its recorded EC50.

Solved entries:
{"Molecule": "COc1ccc(-c2ccc3ncc4c(c3c2)n(-c2ccc(N3CCNCC3)c(C(F)(F)F)c2)c(=O)n4C)cn1 [NVP-BGT226]", "Value kind": "EC50", "Observed measurement": "115 nM"}
{"Molecule": "Clc1ccc(C(c2ccccc2Cl)C(Cl)Cl)cc1 (centres unmarked) [MITOTANE]", "Value kind": "EC50", "Observed measurement": "> 10000 nM"}
{"Molecule": "CSCC[C@H](NC(=O)[C@H](Cc1ccccc1)NC[C@@H](NC[C@@H](N)CS)C(C)C)C(=O)O [SJ000803726, FTASE INHIBITOR I]", "Value kind": "EC50", "Observed measurement": "> 10000 nM"}
{"Molecule": "CC(C)(C(=O)NCC(F)(F)C(F)(F)F)C(=O)N[C@@H]1C(=O)Nc2ccccc2-c2ccccc21 [RO-4929097]", "Value kind": "EC50", "Observed measurement": "> 10000 nM"}
{"Molecule": "Cc1cc(Nc2ccc(NC(=O)c3ccc(Nc4ccnc5ccccc45)cc3)cc2)nc(N)n1 [SJ000785906, SGI-1027]", "Value kind": "EC50", "Observed measurement": "1400 nM"}
{"Molecule": "CS(=O)(=O)c1ccc(-c2cnc(N)c(C(=O)Nc3ccccc3)n2)cc1 [VE-821]", "Value kind": "EC50", "Observed measurement": "> 10000 nM"}
{"Molecule": "CCn1c(C(=O)N(C2CC2)C2CC2)cc2c3c(ncn3C)c(Nc3cc(C)n(C)n3)nc21 [BMS-911543]", "Value kind": "EC50", "Observed measurement": "> 10000 nM"}

Query block: Fill blank: measured EC50 of the molecule O=c1[nH]c2ccccc2c2ccccc12 [SJ000288131, 6(5H)-PHENANTHRIDINONE] is ____.
Result block: 2000 nM

Entry source: paper PMC6522510
